Target: wild type PKR (Homo sapiens, UniProt P30613)
Sequence (P30613 whole entry): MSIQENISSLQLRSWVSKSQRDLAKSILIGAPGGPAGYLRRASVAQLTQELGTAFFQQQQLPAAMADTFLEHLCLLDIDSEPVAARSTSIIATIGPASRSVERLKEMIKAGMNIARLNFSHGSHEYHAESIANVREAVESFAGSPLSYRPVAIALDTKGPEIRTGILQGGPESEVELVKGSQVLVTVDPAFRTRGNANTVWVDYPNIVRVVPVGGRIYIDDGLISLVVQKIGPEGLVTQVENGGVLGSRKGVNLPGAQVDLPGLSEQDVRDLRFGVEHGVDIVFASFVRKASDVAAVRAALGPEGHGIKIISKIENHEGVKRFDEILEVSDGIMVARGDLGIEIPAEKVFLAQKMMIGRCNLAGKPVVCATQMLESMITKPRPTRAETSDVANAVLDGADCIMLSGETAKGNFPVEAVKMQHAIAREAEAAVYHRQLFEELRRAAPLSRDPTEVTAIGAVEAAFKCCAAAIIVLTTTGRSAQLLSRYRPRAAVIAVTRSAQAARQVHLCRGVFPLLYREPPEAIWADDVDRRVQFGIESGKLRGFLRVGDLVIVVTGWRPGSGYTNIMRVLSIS
Assay: Cell based ATP assay in purified red blood cells (Cell-Titer-Glo)
Set-up: endogenous in cells; host or cells: purified red blood cells from healthy volunteers
Conditions: Table 2; RBCs, overnight at 37° C., ATP levels
Quick reference: AC50 of the listed items.

Reference set, count: 6
| molecule | testedTarget | AC50 |
| --- | --- | --- |
| COC(=O)C(c1cc[nH]n1)c1nc2c(s1)c1cnn(Cc3cccc4[nH]ncc34)c(=O)c1n2C (centres unmarked) | wild type PKR (Homo sapiens, UniProt P30613) | ≤ 1000 nM |
| Cn1c2nc(Cc3csc(CO)n3)sc2c2cnn(Cc3cccc4[nH]ncc34)c(=O)c21 | wild type PKR (Homo sapiens, UniProt P30613) | ≤ 1000 nM |
| Cn1c2nc(Cc3ccc4cn[nH]c4c3)sc2c2cnn(Cc3cccc4[nH]ncc34)c(=O)c21 | wild type PKR (Homo sapiens, UniProt P30613) | ≤ 1000 nM |
| Cn1c2nc(C#N)sc2c2cnn(Cc3cccc4[nH]ncc34)c(=O)c21 | wild type PKR (Homo sapiens, UniProt P30613) | > 1000 nM |
| COc1cccc(Cn2ncc3c4sc(Cl)nc4n(C)c3c2=O)c1 | wild type PKR (Homo sapiens, UniProt P30613) | > 1000 nM |
| Cc1cccc(Cc2nc3c(s2)c2cnn(Cc4cccc5[nH]ncc45)c(=O)c2n3C)n1 | wild type PKR (Homo sapiens, UniProt P30613) | ≤ 1000 nM |

Could you please provide reported AC50 for COc1cccc(Cn2ncc3c4sc(Cc5ccc(F)cc5)nc4n(C)c3c2=O)c1 ? Thanks!
≤ 1000 nM

# return recorded AC50 for entry Cn1c2nc(CN)sc2c2cnn(Cc3cccc4[nH]ncc34)c(=O)c21
> 1000 nM

----------
Property: pEC50; scope: individual compounds
Biological target: PKR R510Q (Homo sapiens, UniProt P30613, R510Q)
Sequence (P30613 whole entry R510Q): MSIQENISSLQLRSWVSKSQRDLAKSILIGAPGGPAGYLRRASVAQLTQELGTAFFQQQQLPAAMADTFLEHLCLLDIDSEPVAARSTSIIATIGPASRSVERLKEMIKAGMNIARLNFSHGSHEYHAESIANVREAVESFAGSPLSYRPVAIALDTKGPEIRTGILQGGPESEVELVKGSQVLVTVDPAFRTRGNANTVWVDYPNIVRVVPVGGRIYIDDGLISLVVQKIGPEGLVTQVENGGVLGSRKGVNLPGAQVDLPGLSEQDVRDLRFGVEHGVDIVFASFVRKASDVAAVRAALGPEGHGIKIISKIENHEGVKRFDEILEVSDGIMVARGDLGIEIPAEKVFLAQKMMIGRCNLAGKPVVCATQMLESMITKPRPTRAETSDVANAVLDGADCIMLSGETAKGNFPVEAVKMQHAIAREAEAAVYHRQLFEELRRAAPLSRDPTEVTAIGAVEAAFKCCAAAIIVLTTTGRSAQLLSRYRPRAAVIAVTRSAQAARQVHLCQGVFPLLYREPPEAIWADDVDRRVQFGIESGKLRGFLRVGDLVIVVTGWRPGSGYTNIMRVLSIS
Experiment: PKR mutant assay (R510Q), AC50, LDH/NADH-coupled, absorbance at 340 nm
Details: Table 4; AC50, enzyme assay; read-out: PK R510Q
pEC50: −log10 of the molar value.

Guide cases for pEC50, answers given:
| compound | pEC50 |
| --- | --- |
| Cn1ncc2c(Cn3ncc4c5sc(Cc6cc[nH]n6)nc5n(C)c4c3=O)cccc21 [Compound 201] | > 6.52 |
| Cn1ccc(Cn2ncc3c4sc(CCc5cc[nH]n5)nc4n(C)c3c2=O)n1 [Compound 393] | > 6.52 |
| CCn1c2nc(Cc3cc[nH]n3)sc2c2cnn(Cc3ccccc3)c(=O)c21 [Compound 402] | < 6.10 |
| Cn1c2nc(Cc3csc(C(N)=O)n3)sc2c2cnn(Cc3cccc4[nH]ncc34)c(=O)c21 [Compound 206] | < 6.10 |

Indicate its recorded pEC50; the compound in question is Cn1c2nc(Cc3nccs3)sc2c2cnn(Cc3cccc4[nH]ncc34)c(=O)c21 [Compound 222]
> 6.52

Give pEC50 for Cn1c2nc(Cc3cc[nH]n3)sc2c2cnn(Cc3ccc4c(n3)NCC4)c(=O)c21 [Compound 384]
> 6.52

Quote pEC50 reported for Cn1c2nc(Cc3ncsc3Br)sc2c2cnn(Cc3cccc4[nH]ncc34)c(=O)c21 [Compound 220] please.
> 6.52

Hello, please tell me recorded pEC50 for this one: Cn1c2nc(Cc3n[nH]cc3F)sc2c2cnn(Cc3cccc4[nH]ncc34)c(=O)c21 [Compound 236]
> 6.52

Respond only with pEC50 recorded for Cn1c2nc(Oc3ccn[nH]3)sc2c2cnn(Cc3cccc(N)n3)c(=O)c21 [Compound 396]
> 6.52

Quote pEC50 reported for Cn1c2nc(Cc3cc[nH]n3)sc2c2cnn(Cc3n[nH]c4ncccc34)c(=O)c21 [Compound 374] please.
> 6.52

Give the reported pEC50 for this compound. Cn1c2nc(Cc3cc[nH]n3)sc2c2cnn(Cc3cccc(O)c3)c(=O)c21 [Compound 369]
> 6.52

Quick one: give measured pEC50 for Cn1c2nc([C@H](O)c3cc[nH]n3)sc2c2cnn(Cc3cccc4[nH]ncc34)c(=O)c21 [Compound 305]
> 6.52

Provide pEC50 value for the following compound: Cn1c2nc(Cc3cc[nH]n3)sc2c2cnn(Cc3ccc4cc[nH]c4n3)c(=O)c21 [Compound 380]
> 6.52

For the compound Cn1ccc(CCn2ncc3c4sc(Cc5cc[nH]n5)nc4n(C)c3c2=O)n1 [Compound 392] , give its measured pEC50 value.
> 6.52

Quickly give me recorded pEC50 for Cn1c2nc(Cc3ccccn3)sc2c2cnn(Cc3ccccc3)c(=O)c21 [Compound 263]
> 6.52
